assay: in vitro; settings: human, hela cells, % viability
READOUT_LABEL: viability at 28.5 h, 10 µM (%)
Entry rule: numbers only, all in %.

O=c1c2ccccc2[nH]c(=S)n1CCCN1CCOCC1: 88.1
O=C(c1ccncc1)N1CCCCC1c1nc2ccccc2[nH]1 (centres unmarked): 87.2
CCCN(C(C)=O)c1nc(O)cc(C(F)(F)F)n1: 85.5
COc1ccc(N2CCN(c3c(C)c(C)nc4cc(-c5nccn5C)nn34)CC2)cc1: 85.1

Request: Give a short answer stating reported viability at 28.5 h, 10 µM for COC(=O)[C@H]1O[C@H](c2ccccc2)[C@@H]2C(=O)N(C)C(=O)[C@@H]21 .
Result: 87.6

Request: Give a short answer stating reported viability at 28.5 h, 10 µM for CN(C)c1cccc(-c2cc(NC3CCCCC3)ncn2)c1 .
Result: 109

Request: Give a short answer stating reported viability at 28.5 h, 10 µM for Cc1nn(-c2ccc(F)cc2)c2[nH]c(=O)c(CNC3CC3)cc12 .
Result: 98.1

Request: Give a short answer stating reported viability at 28.5 h, 10 µM for CCN(C(C)COC)S(=O)(=O)c1ccc(C(F)(F)F)nc1 (centres unmarked) .
Result: 88.8

Request: Give a short answer stating reported viability at 28.5 h, 10 µM for Cc1cc(C)c2c(=O)[nH]c(SCC(=O)c3ccc(F)c(C)c3)nc2n1 .
Result: 102

Request: Give a short answer stating reported viability at 28.5 h, 10 µM for O=C(NCCc1c[nH]c2ccccc12)c1cc(Br)cnc1N1CCOCC1 .
Result: 91.7

Request: Give a short answer stating reported viability at 28.5 h, 10 µM for CC(C)OC(=O)N1CCC(C(=O)NC(c2ccccc2)c2ccc3ccccc3n2)CC1 (centres unmarked) .
Result: 106

----------
experiment: in vitro; settings: human, hela cells, % viability
READOUT_LABEL: viability at 28.5 h, 10 µM (%)
Entry rule: numbers only, all in %.

Field: example entries. Status: answers known.
CCn1c2cc(C)sc2c2cnn(CC(=O)OC)c(=O)c21 [CBK284186]: 86.3
COCc1nnc(S)n1-c1cccc(OC)c1 [CBK288424]: 87.7
Cc1cc(OCC(C)C)ccc1C(=O)C1=C(O)C(=O)N(Cc2cccnc2)C1c1cccnc1 (stereo not drawn) [CBK264883]: 97.6
Cc1ccc(CN(c2ccc(C(=O)O)cc2)S(C)(=O)=O)cc1 [CBK287203]: 85
Nc1ccc2c(-c3ccc(OC(F)(F)F)cc3)ccnc2n1 [CBK067649]: 89.1
CN(C)c1ccnc2sc(C(N)=O)c(N)c12 [CBK061708]: 94
COC(=O)c1ccccc1S(=O)(=O)n1c(=O)n(CCc2c[nH]c3ccccc23)c2ccccc21 [CBK106509]: 87.2
O=C(CSc1ccc(Br)cc1)NCc1ccco1 [CBK269701]: 86.5

// next item, viability at 28.5 h, 10 µM requested
Request: Give a short answer stating reported viability at 28.5 h, 10 µM for CN(C)S(=O)(=O)c1cccnc1OCC(O)CNC(C)(C)C (stereo not drawn) [CBK058059] .
Result: 84.5

----------
test: in vitro; conditions: human, hela cells, % viability
Items are presented alongside their recorded viability at 28.5 h, 10 µM.
Entry rule: numbers only, all in %.

Field: example entries. Status: answers known.
CCn1c(=O)c(C(=O)NCCN2CCCCC2)c(O)c2ccccc21 [CBK261432C]: 97.7
CN(C)CCNC1CS(=O)(=O)CC1O (stereo not shown): 84.8
CCOC(=O)c1cnc(C(C)(C)C)nc1O: 88.6
COC(=O)[C@@H](C)NC(=O)[C@H]1CN(C(=O)Nc2ccccc2)CCN1C(=O)NC(C)C: 113
N#Cc1ccc(Oc2ccc(C(=O)C(=O)c3ccccc3)cc2)cc1C#N: 100
CC(C)CS(=O)(=O)Nc1ccc(F)cc1F: 91.9
CN(C)CCn1c(=O)[nH]c2ncc(-c3ccoc3)nc21: 92.6
CC(CNC(=O)c1ccc([N+](=O)[O-])o1)N1CCc2sccc2C1 (stereo not shown): 87.9

Request: Give a short answer stating reported viability at 28.5 h, 10 µM for CCCCSc1nc(N)cc(N2CCC(C(=O)NCC)C2)n1 (stereo not shown) .
Result: 88.2

Request: Give a short answer stating reported viability at 28.5 h, 10 µM for OC12CCCCC1CN(Cc1nc3ccccc3[nH]1)CC2 (stereo not shown) .
Result: 93.9

Request: Give a short answer stating reported viability at 28.5 h, 10 µM for Cc1ncccc1C(=O)N1CCC(F)CC1 .
Result: 85.4

----------
test: in vitro; details: human, hela cells, % viability
READOUT_LABEL: viability at 28.5 h, 10 µM (%)
Entry rule: numbers only, all in %.

COc1ccc(Cl)cc1N1CCN(CCCCC2NC(=O)NC2=O)CC1 (stereo not drawn): 89.4

Request: Give a short answer stating reported viability at 28.5 h, 10 µM for COC(=O)c1cc(NC(=O)NCCC2=CCCCC2)cc(C(=O)OC)c1 .
Result: 90.9

Request: Give a short answer stating reported viability at 28.5 h, 10 µM for COc1ncc(-c2cnc(N)c(-c3cccc(N(C)C)c3)n2)c(OC)n1 .
Result: 90.9

----------
assay: in vitro; conditions: human, hela cells, % viability
READOUT_LABEL: viability at 28.5 h, 10 µM (%)
Entry rule: numbers only, all in %.

Field: example entries. Status: answers known.
CN1CCC2(CC1)CC(NC(=O)C1CCCCC1)c1ccccc1O2 (stereo not shown): 91.6
Cc1ccc(S(=O)(=O)NCC(=O)N2CCN(c3ccc(Cl)cc3)CC2)cc1: 93.3
COc1ccc(CCCC(=O)NC2CCCCC2C)cc1 (stereo not shown): 94.3
Cc1nc2ccc(NC(=S)N3CCN(c4ccccn4)CC3)cc2nc1C: 67.1

Request: Give a short answer stating reported viability at 28.5 h, 10 µM for CCNc1cc(-c2ccc(OC)cc2)ncn1 .
Result: 89

Request: Give a short answer stating reported viability at 28.5 h, 10 µM for CC1CCc2n[nH]c(C(=O)N3CCC(O)C(C)C3)c2C1 (stereo not shown) .
Result: 107

Request: Give a short answer stating reported viability at 28.5 h, 10 µM for CC(=O)Nc1cccc(-c2cnc(N)c(N3CCC(C(=O)O)CC3)n2)c1 .
Result: 98.9

Request: Give a short answer stating reported viability at 28.5 h, 10 µM for Cc1cccc(NS(=O)(=O)c2cc(C(=O)NCc3ccccn3)ccc2C)c1 .
Result: 70.7

Request: Give a short answer stating reported viability at 28.5 h, 10 µM for Cc1ccc(C(=O)NCc2ccc3c(c2)CCO3)c(N2CCOCC2)n1 .
Result: 88.8

Request: Give a short answer stating reported viability at 28.5 h, 10 µM for O=C(Cc1ccccc1)N1CCC(c2nc3ccccc3s2)CC1 .
Result: 92.6

Request: Give a short answer stating reported viability at 28.5 h, 10 µM for CC1(C)Cc2c(cnn2-c2ccc(F)cc2)C(N)C1 (stereo not shown) .
Result: 91.9

Request: Give a short answer stating reported viability at 28.5 h, 10 µM for COc1cc(C(c2c(C(=O)O)[nH]c3ccccc23)c2c(C(=O)O)[nH]c3ccccc23)cc(I)c1O .
Result: 90.6

Request: Give a short answer stating reported viability at 28.5 h, 10 µM for CCOC(=O)C1CCCN(C(=O)Nc2cc(C)on2)C1 (stereo not shown) .
Result: 81.8

----------
Items are presented alongside their recorded viability at 28.5 h, 5 µM.
assay: in vitro; set-up: Viability of infected HeLa host cells, resazurin conversion, bulk resorufin fluorescence relative to DMSO; settings: human, hela cells; bulk resorufin, mean of 2
Entry rule: numbers only, all in %.

Field: example entries. Status: answers known.
CC(C)(C)c1cc(C(=O)Nc2ccncc2)n(Cc2ccc(Cl)cc2Cl)n1 [CBK107284]: 94
Cc1ccc(N2C(=O)c3[nH]nc(C)c3C2c2ccc(O)cc2)cc1 (stereo not drawn) [CBK287915]: 107
CC1=C(C)C(=NNC(N)=S)C(C)=C(C)C1=NNC(N)=S [CBK261262]: 90.8
CCN1CCN(c2cc3c(cc2F)c(=O)c(C(=O)NCCOC)cn3C2CC2)CC1 [CBK300529]: 93
CCc1nnc(NS(=O)(=O)c2ccc(N/C=C3\C(=O)N(c4ccc(Cl)cc4)N=C3C)cc2)s1 [CBK262416]: 94.3

// next item, viability at 28.5 h, 5 µM requested
Request: Give a short answer stating reported viability at 28.5 h, 5 µM for Cc1ccccc1Nc1nc(N)nc(CN2CCCC(C(F)(F)F)C2)n1 (stereo not drawn) [CBK305073] .
Result: 101

----------
assay: in vitro; settings: human, hela cells, % viability
Items are presented alongside their recorded viability at 28.5 h, 10 µM.
Entry rule: numbers only, all in %.

Field: example entries. Status: answers known.
Cc1ccc(S(=O)(=O)NC(=O)Nc2cccc(NC(=O)NS(=O)(=O)c3ccc(C)cc3)n2)cc1 [CBK296102]: 103
CC(C)(C)OC(=O)N1CCN(Cc2ncc(-c3ccccc3)o2)CC1 [CBK306281]: 99.3
O=P(O)(CCc1ccccc1)CN1CCOCC1 [CBK262305]: 104

Request: Give a short answer stating reported viability at 28.5 h, 10 µM for CS(=O)(=O)N1CCN(c2ccccc2NC(=O)Cc2ccc(Cl)cc2)CC1 [CBK267605] .
Result: 94.9
